target or system: hSCN9A (Homo sapiens, UniProt Q15858)
Construct: expressed in transfected cells
Sequence (Q15858 whole entry): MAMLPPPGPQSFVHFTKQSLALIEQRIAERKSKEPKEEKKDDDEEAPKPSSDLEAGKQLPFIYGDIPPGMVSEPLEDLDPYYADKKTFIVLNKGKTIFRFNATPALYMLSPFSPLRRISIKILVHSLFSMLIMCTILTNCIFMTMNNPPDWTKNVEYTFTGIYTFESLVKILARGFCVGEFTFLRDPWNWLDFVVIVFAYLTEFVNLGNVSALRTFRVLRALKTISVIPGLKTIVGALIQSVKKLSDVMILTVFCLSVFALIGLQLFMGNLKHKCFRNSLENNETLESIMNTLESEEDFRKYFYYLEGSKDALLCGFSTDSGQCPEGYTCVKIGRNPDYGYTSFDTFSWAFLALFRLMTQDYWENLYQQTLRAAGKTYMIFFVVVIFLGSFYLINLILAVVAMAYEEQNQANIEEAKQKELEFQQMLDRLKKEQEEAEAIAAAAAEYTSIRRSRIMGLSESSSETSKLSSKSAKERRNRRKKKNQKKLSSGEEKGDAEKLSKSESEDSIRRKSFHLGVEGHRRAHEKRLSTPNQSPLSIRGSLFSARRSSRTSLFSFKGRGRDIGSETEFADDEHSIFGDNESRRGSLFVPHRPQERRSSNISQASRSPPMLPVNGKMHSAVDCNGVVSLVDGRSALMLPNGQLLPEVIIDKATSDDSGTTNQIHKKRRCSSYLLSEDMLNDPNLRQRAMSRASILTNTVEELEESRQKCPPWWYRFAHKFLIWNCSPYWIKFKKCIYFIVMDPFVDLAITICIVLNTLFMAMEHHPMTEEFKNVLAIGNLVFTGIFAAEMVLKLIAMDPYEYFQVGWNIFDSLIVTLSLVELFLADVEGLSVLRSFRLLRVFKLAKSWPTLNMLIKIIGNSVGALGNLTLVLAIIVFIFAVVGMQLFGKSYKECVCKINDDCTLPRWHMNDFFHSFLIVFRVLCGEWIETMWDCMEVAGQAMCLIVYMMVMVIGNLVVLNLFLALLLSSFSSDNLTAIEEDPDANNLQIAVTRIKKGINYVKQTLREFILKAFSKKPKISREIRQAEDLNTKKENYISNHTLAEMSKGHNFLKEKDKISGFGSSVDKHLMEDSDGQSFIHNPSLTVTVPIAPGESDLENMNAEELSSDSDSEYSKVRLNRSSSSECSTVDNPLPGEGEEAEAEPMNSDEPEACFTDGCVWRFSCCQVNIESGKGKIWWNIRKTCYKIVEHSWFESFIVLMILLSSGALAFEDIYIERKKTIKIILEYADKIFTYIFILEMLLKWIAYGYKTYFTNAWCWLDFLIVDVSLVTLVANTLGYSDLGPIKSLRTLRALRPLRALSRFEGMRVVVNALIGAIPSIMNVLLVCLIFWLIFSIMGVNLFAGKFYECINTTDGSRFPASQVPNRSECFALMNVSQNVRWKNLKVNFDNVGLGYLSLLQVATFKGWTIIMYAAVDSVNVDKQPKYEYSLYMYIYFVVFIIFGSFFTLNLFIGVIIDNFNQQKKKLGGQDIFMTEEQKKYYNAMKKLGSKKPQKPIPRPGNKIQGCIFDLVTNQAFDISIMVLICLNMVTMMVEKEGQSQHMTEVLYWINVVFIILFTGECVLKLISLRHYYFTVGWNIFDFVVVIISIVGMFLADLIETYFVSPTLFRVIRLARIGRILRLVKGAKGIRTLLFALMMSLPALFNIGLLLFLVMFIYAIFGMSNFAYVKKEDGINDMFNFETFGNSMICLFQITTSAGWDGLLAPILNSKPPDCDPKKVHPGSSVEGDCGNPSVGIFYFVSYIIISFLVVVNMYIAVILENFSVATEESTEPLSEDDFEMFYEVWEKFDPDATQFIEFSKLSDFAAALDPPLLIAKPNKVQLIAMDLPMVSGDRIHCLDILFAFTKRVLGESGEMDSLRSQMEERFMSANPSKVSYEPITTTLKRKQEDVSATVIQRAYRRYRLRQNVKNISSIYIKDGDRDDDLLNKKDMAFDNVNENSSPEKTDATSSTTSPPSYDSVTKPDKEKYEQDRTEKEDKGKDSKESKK
experiment notes: Whole-cell patch-clamp electrophysiology (conventional or PatchXpress), HEK cells expressing hSCN9A, estimated IC-50
Type: cell-based
conditions: estimated IC-50, HEK cells expressing hSCN9A; class symbols or bounds; read-out: SCN9A EIC-50
pIC50: −log10 of the molar value.
result type: pIC50

Below: 5 compounds and their reported pIC50.
CCc1nnc(NS(=O)(=O)c2ccc(Nc3ccn(Cc4ccc(Cl)cc4)n3)cc2F)s1 | < 6.00
CC(C)(C)n1nc(Cc2cccc(Cl)c2)cc1Nc1ccc(S(=O)(=O)Nc2nccs2)c(F)c1 | > 5.70
Cc1ccc(Cc2cc(Nc3ccc(S(=O)(=O)Nc4nccs4)c(F)c3)n(C(C)(C)C)n2)cc1 | > 5.70
CC(C)(C)c1ccc(OCc2csc(Nc3ccc(S(=O)(=O)Nc4nccs4)cc3)n2)cc1 | 5.00 to 5.70
Cc1cc(Nc2ccc(S(=O)(=O)Nc3nccs3)c(F)c2)n(C(C)(C)C)n1 | 5.00 to 5.70

Count: 7. Required value per item: pIC50.
1. O=S(=O)(Nc1nccs1)c1ccc(Nc2ccn(Cc3ccc(Cl)cc3F)n2)c(F)c1
2. O=S(=O)(Nc1nccs1)c1ccc(Nc2cc(-c3ccccc3)nn2-c2ccccc2)cc1F
3. CN(CCc1ccccc1)Cc1csc(Nc2ccc(S(=O)(=O)Nc3nccs3)cc2)n1
4. Cn1nc(CC(C)(C)C)cc1Nc1ccc(S(=O)(=O)Nc2nccs2)cc1
5. Cc1cc(Nc2ccc(S(=O)(=O)Nc3nnc(C)s3)c(F)c2)n(-c2ccccc2)n1
6. Cc1cc(S(=O)(=O)Nc2nccs2)c(F)cc1Nc1ccn(Cc2ccc(Cl)cc2)n1
7. CC(C)c1cc(Nc2ccc(S(=O)(=O)Nc3nccs3)c(F)c2)n(-c2ccccc2)n1

Response:
1: > 5.70; 2: > 5.70; 3: 5.00 to 5.70; 4: 5.00 to 5.70; 5: < 6.00; 6: > 5.70; 7: > 5.70

* * *

Give measured IC50 for each item. Keep answers brief.
target or system: hSCN3A (Homo sapiens, UniProt Q9NY46)
Construct: expressed in transfected cells
Sequence (Q9NY46 whole entry): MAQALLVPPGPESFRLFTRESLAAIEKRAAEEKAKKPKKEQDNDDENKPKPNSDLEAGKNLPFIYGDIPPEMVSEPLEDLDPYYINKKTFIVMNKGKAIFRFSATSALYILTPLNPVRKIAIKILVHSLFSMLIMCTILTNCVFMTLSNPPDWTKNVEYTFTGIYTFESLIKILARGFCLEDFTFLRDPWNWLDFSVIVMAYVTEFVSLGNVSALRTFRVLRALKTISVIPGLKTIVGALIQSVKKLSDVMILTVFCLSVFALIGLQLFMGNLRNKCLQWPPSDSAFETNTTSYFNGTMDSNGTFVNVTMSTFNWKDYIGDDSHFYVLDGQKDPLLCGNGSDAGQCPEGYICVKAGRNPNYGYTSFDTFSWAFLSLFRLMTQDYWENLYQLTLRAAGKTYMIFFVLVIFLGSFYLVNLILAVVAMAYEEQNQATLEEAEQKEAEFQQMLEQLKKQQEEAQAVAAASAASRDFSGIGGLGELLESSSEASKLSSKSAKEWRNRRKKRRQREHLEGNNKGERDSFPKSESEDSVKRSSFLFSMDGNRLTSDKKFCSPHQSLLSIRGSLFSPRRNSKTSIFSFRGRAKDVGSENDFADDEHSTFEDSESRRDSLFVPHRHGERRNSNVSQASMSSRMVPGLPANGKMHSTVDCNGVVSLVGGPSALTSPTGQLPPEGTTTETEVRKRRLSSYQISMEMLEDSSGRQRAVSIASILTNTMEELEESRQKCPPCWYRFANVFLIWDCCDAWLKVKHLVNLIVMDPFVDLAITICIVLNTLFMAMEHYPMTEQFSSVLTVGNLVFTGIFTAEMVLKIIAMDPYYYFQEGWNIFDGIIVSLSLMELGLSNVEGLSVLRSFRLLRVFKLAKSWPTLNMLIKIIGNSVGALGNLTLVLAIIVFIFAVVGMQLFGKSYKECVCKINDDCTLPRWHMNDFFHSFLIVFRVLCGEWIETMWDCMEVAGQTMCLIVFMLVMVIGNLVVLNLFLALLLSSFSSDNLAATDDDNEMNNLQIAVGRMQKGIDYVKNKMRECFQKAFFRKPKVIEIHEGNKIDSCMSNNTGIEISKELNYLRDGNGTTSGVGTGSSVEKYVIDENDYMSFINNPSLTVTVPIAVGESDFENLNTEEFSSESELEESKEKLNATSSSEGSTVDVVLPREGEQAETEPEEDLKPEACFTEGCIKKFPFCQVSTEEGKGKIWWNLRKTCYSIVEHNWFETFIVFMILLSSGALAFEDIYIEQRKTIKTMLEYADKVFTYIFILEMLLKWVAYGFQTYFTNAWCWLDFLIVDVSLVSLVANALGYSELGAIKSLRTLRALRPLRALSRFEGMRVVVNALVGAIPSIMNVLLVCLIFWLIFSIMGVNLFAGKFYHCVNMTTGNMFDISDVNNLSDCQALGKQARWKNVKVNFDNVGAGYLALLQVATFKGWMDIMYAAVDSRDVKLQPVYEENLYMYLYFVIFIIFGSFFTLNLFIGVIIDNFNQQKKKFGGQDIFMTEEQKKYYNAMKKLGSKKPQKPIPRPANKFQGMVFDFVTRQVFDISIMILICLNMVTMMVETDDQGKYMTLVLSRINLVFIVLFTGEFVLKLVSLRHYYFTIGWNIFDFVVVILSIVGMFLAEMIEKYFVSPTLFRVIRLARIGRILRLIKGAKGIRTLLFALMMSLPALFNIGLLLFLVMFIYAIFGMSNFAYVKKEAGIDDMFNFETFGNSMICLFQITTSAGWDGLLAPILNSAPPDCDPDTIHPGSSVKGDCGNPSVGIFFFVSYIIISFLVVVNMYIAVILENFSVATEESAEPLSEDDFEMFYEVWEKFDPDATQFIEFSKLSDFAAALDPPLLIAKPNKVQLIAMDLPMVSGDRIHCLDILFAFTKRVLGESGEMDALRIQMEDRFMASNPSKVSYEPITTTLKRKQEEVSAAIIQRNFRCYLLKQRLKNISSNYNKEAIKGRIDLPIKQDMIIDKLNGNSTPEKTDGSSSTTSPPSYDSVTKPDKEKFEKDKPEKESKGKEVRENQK
experiment notes: Whole-cell patch-clamp electrophysiology (conventional or PatchXpress), HEK cells expressing hSCN3A, estimated IC-50
Assay type: cell-based
conditions: estimated IC-50, HEK cells expressing hSCN3A; class symbols or bounds; read-out: SCN3A EIC-50
Description: Human Embryonic Kidney (HEK) cells were transfected with hSCN3A or hSCN9A constructs using lipofectamine reagent (Invitrogen), using standard techniques. […] The voltage-dependence of inactivation was determined by applying a series of depolarizing prepulses (8 sec long in 10 mV increments) from a negative holding potential. […] Cells were then voltage clamped at the empirically determined V1/2. […]

Below: 3 compounds and their reported IC50.
COc1cc(Cl)ccc1-c1cc(Nc2ccc(S(=O)(=O)Nc3nccs3)c(F)c2)n(C)n1 | < 2000 nM
Cc1cc(S(=O)(=O)Nc2nccs2)c(F)cc1Nc1ccn(Cc2ccc(Cl)cc2)n1 | < 2000 nM
O=S(=O)(Nc1nccs1)c1ccc(Nc2nc(CNCC(c3ccccc3)c3ccccc3)cs2)cc1 | < 2000 nM

Now for another entry.
Request: # return recorded IC50 for input "O=S(=O)(Nc1nccs1)c1ccc(Nc2nc(-c3ccc(C(F)(F)F)cc3F)cs2)cc1"
Response: < 2000 nM

* * *

target or system: hSCN9A (Homo sapiens)
Construct: expressed in transfected cells
experiment notes: Whole-cell patch-clamp electrophysiology (conventional or PatchXpress), HEK cells expressing hSCN9A, estimated IC-50
Type: cell-based
conditions: estimated IC-50, HEK cells expressing hSCN9A; class symbols or bounds; read-out: SCN9A EIC-50
Procedure: Human Embryonic Kidney (HEK) cells were transfected with hSCN3A or hSCN9A constructs using lipofectamine reagent (Invitrogen), using standard techniques. […] The voltage-dependence of inactivation was determined by applying a series of depolarizing prepulses (8 sec long in 10 mV increments) from a negative holding potential. […] Cells were then voltage clamped at the empirically determined V1/2. […]
pIC50: −log10 of the molar value.
result type: pIC50

Below: 5 compounds and their reported pIC50.
O=S(=O)(Nc1nccs1)c1ccc(Nc2nc(COc3ccc(Cl)cc3)cs2)cc1 [Compound 52] | > 5.70
O=S(=O)(Nc1nccs1)c1ccc(Nc2nccc(OCc3ccccc3)n2)cc1 [Compound 45] | < 5.00
O=S(=O)(Nc1nnc(C2CC2)s1)c1ccc(Nc2ccn(Cc3ccc(Cl)cc3)n2)cc1F [Compound 253] | < 6.00
O=S(=O)(Nc1nccs1)c1ccc2nn(CCCCc3ccccc3)cc2c1 [Compound 279] | 5.00 to 5.70
O=[N+]([O-])c1ccc(CNCc2csc(Nc3ccc(S(=O)(=O)Nc4nccs4)cc3)n2)cc1 [Compound 72] | 5.00 to 5.70

Count: 3. Required value per item: pIC50.
1. CN(CCc1ccncc1)Cc1csc(Nc2ccc(S(=O)(=O)Nc3nccs3)cc2)n1 [Compound 75]
2. COCc1nnc(NS(=O)(=O)c2ccc(Nc3ccn(Cc4ccc(Cl)cc4)n3)cc2F)s1 [Compound 254]
3. O=S(=O)(Nc1nccs1)c1ccc(Nc2nc3cc(Cl)ccc3[nH]2)cc1 [Compound 99]

Response:
1. < 6.00
2. < 6.00
3. 5.00 to 5.70

Count: 3. Required value per item: pIC50.
1. O=S(=O)(Nc1nccs1)c1ccc(Nc2nc(CNC3CCCCCC3)cs2)cc1 [Compound 74]
2. Cc1cc(Nc2ccc(S(=O)(=O)Nc3ncc(C)s3)c(F)c2)n(-c2ccccc2)n1 [Compound 239]
3. Cn1nc(Cc2cccc(Cl)c2)cc1Nc1ccc(S(=O)(=O)Nc2nccs2)cc1F [Compound 219]

Response:
5.00 to 5.70
5.00 to 5.70
> 5.70

Request: Provide pIC50, tested on hSCN9A (Homo sapiens), for O=S(=O)(Nc1nccs1)c1ccc2c(cnn2CCCCc2ccccc2)c1 [Compound 278] .
Response: > 5.70

* * *

target or system: hSCN9A (Homo sapiens, UniProt Q15858)
Construct: expressed in transfected cells
experiment notes: Whole-cell patch-clamp electrophysiology (conventional or PatchXpress), HEK cells expressing hSCN9A, estimated IC-50
Assay type: cell-based
conditions: estimated IC-50, HEK cells expressing hSCN9A; class symbols or bounds; read-out: SCN9A EIC-50
Give measured IC50 for each item. Keep answers brief.

Below: 4 compounds and their reported IC50.
CCN(CC)Cc1csc(Nc2ccc(S(=O)(=O)Nc3nccs3)cc2)n1 [Compound 68] | 2000 to 10000 nM
Cc1cc(Nc2ccc(S(=O)(=O)Nc3nccs3)c(F)c2)n(C2CCCC2)n1 [Compound 169] | < 2000 nM
O=S(=O)(Nc1nccs1)c1ccc(Nc2ccn(Cc3ccc(Cl)cc3)n2)cc1Cl [Compound 263] | < 2000 nM
O=S(=O)(Nc1nccs1)c1ccc(Nc2nc(CCC3CCCC3)cs2)cc1 [Compound 51] | 2000 to 10000 nM

Count: 2. Required value per item: IC50.
1. COc1ccccc1-c1cc(Nc2ccc(S(=O)(=O)Nc3nccs3)c(F)c2)n(C)n1 [Compound 223]
2. O=S(=O)(Nc1nccs1)c1ccc(Nc2nccc(OCc3ccccc3F)n2)cc1 [Compound 54]

Response:
1. < 2000 nM
2. > 1000 nM

Count: 3. Required value per item: IC50.
1. O=S(=O)(Nc1nccs1)c1ccc(Nc2ccn(Cc3ccc(Cl)cc3)n2)cn1 [Compound 235]
2. Cc1cc(Nc2ccc(S(=O)(=O)Nc3nccs3)c(F)c2)n(-c2ccc(F)cc2C(F)(F)F)n1 [Compound 187]
3. Cn1nc(Cc2ccc(Cl)cc2)c(C#N)c1Nc1ccc(S(=O)(=O)Nc2nccs2)cc1 [Compound 119]

Response:
["2000 to 10000 nM", "< 2000 nM", "2000 to 10000 nM"]

Count: 3. Required value per item: IC50.
1. N#Cc1cc(Nc2ccn(Cc3ccc(Cl)cc3)n2)ccc1S(=O)(=O)Nc1nccs1 [Compound 264]
2. Cc1cc(Nc2ccc(S(=O)(=O)Nc3nccs3)c(F)c2)n(-c2ccc(C(F)(F)F)cc2)n1 [Compound 170]
3. O=S(=O)(Nc1nccs1)c1ccc(Nc2ccn(Cc3ccc(F)cc3)n2)c(F)c1 [Compound 226]

Response:
["< 2000 nM", "< 2000 nM", "< 2000 nM"]

* * *

target or system: hSCN9A (Homo sapiens, UniProt Q15858)
Construct: expressed in transfected cells
experiment notes: Whole-cell patch-clamp electrophysiology (conventional or PatchXpress), HEK cells expressing hSCN9A, estimated IC-50
Type: cell-based
conditions: estimated IC-50, HEK cells expressing hSCN9A; class symbols or bounds; read-out: SCN9A EIC-50
result type: IC50

Below: 8 compounds and their reported IC50.
Cc1ccc(Cc2cc(Nc3ccc(S(=O)(=O)Nc4nccs4)cc3F)[nH]n2)cc1 | < 2000 nM
Cc1cc(Nc2ccc(S(=O)(=O)Nc3nncs3)c(F)c2)n(-c2ccccc2)n1 | 2000 to 10000 nM
O=S(=O)(Nc1nccs1)c1cc(F)c(Nc2ccn(Cc3ccc(Cl)cc3)n2)cc1F | < 2000 nM
Cc1cc(Nc2ccc(S(=O)(=O)Nc3nccs3)c(F)c2)n(-c2ccccc2C(F)(F)F)n1 | < 2000 nM
Cc1cc(Nc2ccc(S(=O)(=O)Nc3nc(C)ns3)c(F)c2)n(-c2ccccc2)n1 | 2000 to 10000 nM
O=S(=O)(Nc1nccs1)c1ccc(Nc2nc(C3CC3c3ccccc3)cs2)cc1 (centres unmarked) | > 1000 nM
O=S(=O)(Nc1nccs1)c1ccc(Nc2nc(Cc3ccc(Cl)cc3)cs2)nc1 | 2000 to 10000 nM
O=S(=O)(Nc1nccs1)c1ccc(Nc2ccn(Cc3ccc(Cl)cc3)n2)c(Cl)c1 | < 2000 nM

Count: 6. Required value per item: IC50.
1. Cn1nc(C2(c3ccc(Cl)cc3)CC2)cc1Nc1ccc(S(=O)(=O)Nc2nccs2)cc1
2. NC(=O)Cn1nc(Cc2ccc(Cl)cc2)cc1Nc1ccc(S(=O)(=O)Nc2nccs2)cc1
3. Cc1cc(Nc2ccc(S(=O)(=O)Nc3nccs3)c(F)c2)n(C2CCN(C)CC2)n1
4. Cc1cc(Nc2ccc(S(=O)(=O)Nc3nccs3)c(C(F)(F)F)c2)n(-c2ccccc2)n1
5. Cn1nc(C2(c3ccc(Cl)cc3)CC2)cc1Nc1ccc(S(=O)(=O)Nc2nccs2)cc1F
6. O=S(=O)(Nc1nccs1)c1ccc(Nc2cncc(C(c3ccccc3)c3ccccc3)n2)cc1

Response:
1. < 2000 nM
2. < 2000 nM
3. 2000 to 10000 nM
4. > 1000 nM
5. < 2000 nM
6. 2000 to 10000 nM
